Biological target: Ab-15
Sequence (heavy, as listed by the source, chain 1 of 2): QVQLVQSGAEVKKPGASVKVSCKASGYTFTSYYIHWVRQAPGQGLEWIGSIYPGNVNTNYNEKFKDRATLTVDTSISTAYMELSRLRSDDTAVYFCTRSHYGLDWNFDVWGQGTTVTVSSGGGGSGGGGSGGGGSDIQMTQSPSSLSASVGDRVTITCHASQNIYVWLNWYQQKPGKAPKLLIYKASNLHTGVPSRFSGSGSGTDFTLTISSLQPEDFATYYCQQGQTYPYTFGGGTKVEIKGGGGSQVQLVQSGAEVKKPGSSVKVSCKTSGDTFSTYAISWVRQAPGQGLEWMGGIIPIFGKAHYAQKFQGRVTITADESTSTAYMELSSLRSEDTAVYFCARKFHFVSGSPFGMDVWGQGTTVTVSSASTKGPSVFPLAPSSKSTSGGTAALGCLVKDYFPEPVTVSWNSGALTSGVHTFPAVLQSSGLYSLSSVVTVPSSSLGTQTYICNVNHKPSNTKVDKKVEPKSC
Sequence (light, as listed by the source, chain 2 of 2): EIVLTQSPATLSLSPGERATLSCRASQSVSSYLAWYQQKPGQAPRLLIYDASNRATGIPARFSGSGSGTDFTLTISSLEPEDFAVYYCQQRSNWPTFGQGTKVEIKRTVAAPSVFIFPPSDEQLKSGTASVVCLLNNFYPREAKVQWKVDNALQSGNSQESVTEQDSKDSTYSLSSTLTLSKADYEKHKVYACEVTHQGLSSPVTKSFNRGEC
Experiment: BLI (Octet): biotinylated peptide on sensor, Ab-15 titrated, 1:1 model
Where no end group is shown, it is not given here.
quantity.measured: pKd
Field pKd (float): negative decimal logarithm of the concentration in molar.

So what does the record say about pKd for IDWCPRYLWDECYN (cysteine pairing not given here; also: biotinylated, site not given here, CD28 peptide mask) [Peptide-71] ?
7.80

The origin of these recorded values is patent US20260242478A1.
